# METHOD SUMMARY: in vitro
# REPORTED CONDITIONS: human, microsomes
Entries and their measured microsomal CLint follow.

{"columns": ["COMPOUND", "microsomal CLint"],
 "data": [
  ["COc1cc(O)c(C(CC(=O)N2CC(C)CC(C)C2)c2ccc3c(c2)OCO3)c(OC)c1 (stereo not drawn)", "> 150 µL/min/mg"],
  ["O=C(NC[C@@H](O)CN1CCC(Oc2ccc(Cl)c(Cl)c2)CC1)n1c(=O)[nH]c2ccccc21", "< 3 µL/min/mg"],
  ["Nc1c(C(=O)c2cccc(OC[C@@H](O)CO)c2)cnn1-c1ccc(F)cc1 [RO-3201195]", "< 3 µL/min/mg"]
]}

----------
Entries and their measured logD follow.
# METHOD SUMMARY: physchem
# REPORTED CONDITIONS: octan-1-ol/water, pH 7.4, LogD7.4
MEASUREMENT KIND: logD

{"columns": ["COMPOUND", "MEASUREMENT KIND", "REPORTED"],
 "data": [
  ["COC[C@H](C)Oc1cc(O[C@@H](C)Cc2ccccc2)cc(C(=O)Nc2ccc(C(=O)O)cn2)c1", "logD", 1.5],
  ["Cc1ccc(S(=O)(=O)Nc2c(C(=O)NC(C)C(C)(C)C)c(C)nn2-c2ccccc2)cc1 (centres undefined)", "logD", 1.21],
  ["CCCCc1ncc(/C=C(\\Cc2cccs2)C(=O)O)n1Cc1ccc(C(=O)O)cc1", "logD", -0.9],
  ["O=C(NC1Cc2ccccc2N(CC(=O)N2CCC(O)CC2)C1=O)c1cc2cc(Cl)sc2[nH]1 (centres undefined)", "logD", 2.86],
  ["Cc1cn([C@H]2CCCN([C@@H](CC(C)C)c3ccc(C(=O)O)c(Oc4cccc(Cl)c4)c3)C2)c(=O)[nH]c1=O", "logD", 0.93],
  ["CCN(C(=O)NCc1ccc(S(C)(=O)=O)cc1)C1CCN(CCC(c2ccccc2)c2ccccc2)CC1", "logD", 2.86],
  ["COc1ccccc1CCNCc1cccc(CCNC[C@H](O)c2ccc(O)c3[nH]c(=O)sc23)c1", "logD", 0.82],
  ["C[C@H]1O[C@@H](n2cnc3c(N)nc(OCC4CC45CC5)nc32)[C@H](O)[C@H]1Cl (some centres undefined)", "logD", 3.68],
  ["N[C@H](Cc1c[nH]c2ccccc12)C(=O)O", "logD", -0.92],
  ["NC(N)=Nc1cc(Cl)nc(-c2ccccc2)n1", "logD", 2.16],
  ["CSc1ccc2c(c1)N(CCC1CCCCN1C)c1ccccc1S2 (centres undefined)", "logD", 3.76],
  ["O=C(N[C@@H](c1ccccc1)[C@@H]1CCCCN1)c1cccc(C(F)(F)F)c1Cl", "logD", 2.61],
  ["Cc1ncc(-c2ccnc(Nc3ccc(C#N)cc3)n2)n1C(C)C", "logD", 3.62],
  ["Cc1ccn2c(-c3ccnc(N)n3)c(C)nc2c1", "logD", 2.39]
]}

----------
# METHOD SUMMARY: in vitro
# REPORTED CONDITIONS: Beagle, dog, plasma
Entries and their measured fraction unbound at 5 h follow.
MEASUREMENT KIND: fraction unbound at 5 h

{"columns": ["MOL", "REPORTED"],
 "data": [
  ["C[C@H](CO)Nc1nc(SCc2ccccc2)nc2[nH]c(=O)sc12", 0.0219],
  ["O=C(c1c[nH]c(=O)c2ccccc12)N1CCC(N2CCC(Oc3ccc(Cl)c(Cl)c3)CC2)CC1", 0.0488],
  ["C[C@H](CO)Nc1nc(SCc2cccc(F)c2F)nc2nc(N)sc12", 0.0366],
  ["Cc1cc(Nc2nc(N[C@@H](C)c3ncc(F)cn3)c(C#N)nc2C)n[nH]1", 0.454],
  ["Cc1cc(Nc2cnc(C#N)c(N[C@@H](C)c3ccc(F)cn3)n2)n[nH]1", 0.204],
  ["CCN(C(=O)c1cnn(-c2ccccc2)c1NS(=O)(=O)c1ccc(-c2cnco2)cc1)C1CCCCC1", 0.0025]
]}
